These measurements were taken from ChEMBL document CHEMBL3988442.

Experimental Target: Tyrosyl-tRNA synthetase, putative (Trypanosoma cruzi (strain CL Brener)) (UniProt Q4DSP6)
Sequence (Q4DSP6 as listed by the source): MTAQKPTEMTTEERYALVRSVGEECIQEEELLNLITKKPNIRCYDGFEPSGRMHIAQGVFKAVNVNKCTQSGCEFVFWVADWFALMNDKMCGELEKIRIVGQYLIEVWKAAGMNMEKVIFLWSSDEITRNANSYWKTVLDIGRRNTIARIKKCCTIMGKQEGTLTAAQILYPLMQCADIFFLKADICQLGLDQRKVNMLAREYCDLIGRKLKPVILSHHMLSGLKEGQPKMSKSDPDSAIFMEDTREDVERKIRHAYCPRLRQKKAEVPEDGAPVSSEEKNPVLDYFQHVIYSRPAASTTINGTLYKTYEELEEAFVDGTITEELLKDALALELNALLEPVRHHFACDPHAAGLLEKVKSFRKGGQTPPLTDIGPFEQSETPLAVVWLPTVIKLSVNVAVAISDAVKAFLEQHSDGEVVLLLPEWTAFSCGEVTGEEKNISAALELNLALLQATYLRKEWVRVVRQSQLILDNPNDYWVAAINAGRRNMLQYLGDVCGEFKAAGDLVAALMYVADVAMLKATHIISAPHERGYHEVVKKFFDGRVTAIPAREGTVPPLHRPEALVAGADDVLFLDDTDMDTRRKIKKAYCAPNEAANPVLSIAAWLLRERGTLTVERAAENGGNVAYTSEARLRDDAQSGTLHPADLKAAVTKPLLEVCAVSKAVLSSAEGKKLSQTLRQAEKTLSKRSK
Assay Info: Trypanosoma cruzi tyrosyl tRNA synthetase (TcYRS) SOP
Type: functional
Parameters: scale not given: direction of the effect not stated beside the values
Measurement Setup: 30 µM
Measurement Name: Percent Effect (%)
Dear colleague, please return just the value in %, with no unit written.

# Molecule, Result Units, Value
records = [
    ("CC(=O)N1CCC[C@H]1C(=O)NCCOc1cccc(Cl)c1", "%", 24.4),
    ("Cc1cc(-c2cnc(N3CCNC(=O)C3)nc2-c2ccc(C)o2)on1", "%", 11.5),
    ("CN(C)C(=O)N1C[C@@H]2COC[C@]2(CNS(C)(=O)=O)C1", "%", -5.13),
    ("Cc1noc2ncc(C(=O)NCC3CCN(C(C)C)C3)cc12 (stereo unspecified)", "%", 4.88),
]

Request: So what's the measured Percent Effect for this one? Cn1cc(Br)c(=O)c(NS(=O)(=O)c2ccc(F)cc2)c1
Result: 12.2

Request: Also, COCCN1CCC(NC(=O)C2(c3cc(C)cc(C)c3)CC2)CC1 please.
Result: -1.24

Request: Also, O=C(NC1CCS(=O)(=O)C1)N1CCN(c2cnccn2)CC1 (stereo unspecified) please.
Result: 6.1

Request: Also, Cc1cccc(C2(C(=O)NCCCn3cccn3)CC2)c1 please.
Result: 15

Request: Also, Cc1cnn(CC2CCCCN2Cc2nc(-c3ccoc3)no2)c1 (stereo unspecified) please.
Result: 23.5

Request: Also, O=C(C1CCCC1)N1CCN(Cc2nc(-c3ccco3)no2)CC1 please.
Result: 15.8

Request: Also, Cc1noc(C)c1CNc1cc(N2CCCC2CO)ncn1 (stereo unspecified) please.
Result: 12.7
